B1: LINE1-full (parent)
chain: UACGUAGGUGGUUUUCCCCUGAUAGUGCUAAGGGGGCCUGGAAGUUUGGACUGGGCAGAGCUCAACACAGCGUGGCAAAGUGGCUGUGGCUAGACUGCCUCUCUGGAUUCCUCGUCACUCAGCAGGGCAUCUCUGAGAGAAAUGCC

Variants of: B1
assay_text: self-cleavage, relative activity (ratio to wild type); higher = more cleavage; in vitro, sequencing; the parent is a self-cleaving ribozyme

{"mutant_id": "A22G A142U", "self-cleavage": 0.92}
{"mutant_id": "U29C", "self-cleavage": 1.28}
{"mutant_id": "A59G A77U", "self-cleavage": 0.05}
{"mutant_id": "C76U A138G", "self-cleavage": 2.42}
{"mutant_id": "A24U A57C", "self-cleavage": 0}
{"mutant_id": "U45A A136U", "self-cleavage": 1.9}
{"mutant_id": "U102C U108C", "self-cleavage": 1.15}
{"mutant_id": "U13A A64G", "self-cleavage": 0.12}
{"mutant_id": "C17G U115C", "self-cleavage": 0.84}
{"mutant_id": "G41U A129C", "self-cleavage": 1.02}
{"mutant_id": "G36C U47C", "self-cleavage": 0.92}
{"mutant_id": "A65G G74A", "self-cleavage": 0.01}
{"mutant_id": "C38U C101U", "self-cleavage": 1.82}
{"mutant_id": "U26A U119G", "self-cleavage": 1.45}
{"mutant_id": "U102A C116U", "self-cleavage": 0.97}
{"mutant_id": "U13C A57U", "self-cleavage": 0.12}
{"mutant_id": "C56U A67G", "self-cleavage": 0.07}
{"mutant_id": "U15A U102C", "self-cleavage": 1.15}
{"mutant_id": "C51U U115C", "self-cleavage": 1.98}
{"mutant_id": "U39C G106C", "self-cleavage": 0.84}
{"mutant_id": "U81C A142C", "self-cleavage": 1.18}
{"mutant_id": "A92G A138G", "self-cleavage": 0.08}
{"mutant_id": "U85C U102G", "self-cleavage": 0.22}
{"mutant_id": "A43U A141C", "self-cleavage": 2.43}
{"mutant_id": "A121C C146U", "self-cleavage": 1.77}
{"mutant_id": "A24U C120U", "self-cleavage": 0.79}
{"mutant_id": "G25U A30G", "self-cleavage": 1.27}
{"mutant_id": "A6G U130A", "self-cleavage": 1.18}
{"mutant_id": "A31U A136U", "self-cleavage": 0.55}
{"mutant_id": "A50G A67U", "self-cleavage": 0.1}
{"mutant_id": "U81C G122U", "self-cleavage": 1.14}
{"mutant_id": "C56U U134G", "self-cleavage": 0.28}
{"mutant_id": "C68U U134C", "self-cleavage": 0.17}
{"mutant_id": "G41A A117G", "self-cleavage": 1.53}

Values from the RNAGym collection of RNA variant scans (doi:10.7554/elife.90254)
